# procedure.text: Neurite outgrowth and cell viability, two-color fluorescence assay kit
# Format: cell-based
# condition.notes: human, SH-SY5Y neuroblastoma cells, 3-day or 6-day treatment, green fluorescence, read-out: cell viability relative to the control
Answer each item with its documented viability at 10 µM.
Phrase the answer as number then unit, nothing more needed.

Challenge: Please give the measured viability at 10 µM for this compound: COc1cc(C=Cc2cc(O)cc(O)c2)ccc1O [isoRHA, 3,5,4′-trihydroxy-3′-methoxystilbene]
Response given: 80%

Challenge: What do you get for COc1ccc(/C=C/c2cc(O)cc(O)c2)cc1O [RHA, 3,5,3′-trihydroxy-4′-methoxystilbene] ?
Response given: 80%

----------
Task for the reader: assign each of the following molecules its reported viability at 10 µM.
# procedure.text: Neurite outgrowth and cell viability, two-color fluorescence assay kit
# Format: cell-based
# condition.notes: human, 3-day or 6-day treatment, green fluorescence, read-out: cell viability relative to the control
Give your result in % as a bare value.

Challenge: So what's the measured viability at 10 µM for this one? Oc1cc(O)cc(C=Cc2ccc(O)c(O)c2)c1 [PIC, 3,5,3′,4′-tetrahydroxystilbene]
Response given: 80

Challenge: Again, but for Oc1cc(O)cc(C=Cc2c(O)cccc2O)c1 [GNT, 3,5,2′,6′-tetrahydroxystilbene]
Response given: 80

----------
# measured.target: Aβ peptide (1–42) (Homo sapiens, UniProt P05067)
# Construct: The Aβ peptide (1–42) was synthesized and purchased from Kelowna International Scientific Inc; purchased Kelowna International Scientific Inc. (New Taipei, Taiwan); host or cells: chemical synthesis
# Sequence (P05067 672-713): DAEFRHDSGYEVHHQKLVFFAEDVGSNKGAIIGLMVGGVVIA
# procedure.text: biochemical
# condition.notes: 10 μM Aβ working solution, ThT, 37 °C, 24 h; read-out: IC50 of the anti-Aβ peptide (1–42) aggregation
# Procedure: To prepare the 10 μM Aβ peptide working solution, commercial Aβ peptide was first weighted and dissolved in HFIP to 1 mM. Next, the solvent was evaporated in a hood and then re-dissolved using 100 μL of 60 mM NaOH. […] The IC50 of the inhibition against the Aβ aggregation of PIC and its analogs was calculated from each linear equation using three test concentrations and their inhibition capacities.
property.measured: IC50 (nM)
Number only, in nM; omit the unit.

Challenge: Which IC50 is reported with Aβ peptide (1–42) (Homo sapiens, UniProt P05067) for this entry: COc1cc(C=Cc2cc(O)cc(O)c2)ccc1O [isoRHA, 3,5,4′-trihydroxy-3′-methoxystilbene] ?
Response given: 1940
